Reported pIC50 is given for each of the following compounds.
- testTarget: p70S6K (Homo sapiens, UniProt P23443, T412E)
- Construct: human p70S6 kinase domain residues 1-421, containing a T412E mutation; made in house
- Sequence (P23443 1-421 T412E): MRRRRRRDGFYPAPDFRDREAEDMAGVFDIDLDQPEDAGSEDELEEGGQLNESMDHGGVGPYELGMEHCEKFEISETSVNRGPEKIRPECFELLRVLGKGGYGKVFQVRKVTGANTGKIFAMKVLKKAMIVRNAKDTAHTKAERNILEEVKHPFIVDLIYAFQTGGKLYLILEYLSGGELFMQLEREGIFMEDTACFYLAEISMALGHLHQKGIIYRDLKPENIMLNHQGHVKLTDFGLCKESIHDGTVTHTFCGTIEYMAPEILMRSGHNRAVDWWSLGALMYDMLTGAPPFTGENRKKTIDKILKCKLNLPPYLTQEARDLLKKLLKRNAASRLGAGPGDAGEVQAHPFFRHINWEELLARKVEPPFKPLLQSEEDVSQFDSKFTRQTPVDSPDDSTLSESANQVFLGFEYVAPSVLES
- assayDetails: p70S6 Kinase Assay (Luciferase-Coupled Chemiluminescent Kinase assay, LCCA)
- Type: biochemical
- runParameters: human p70S6 kinase domain residues 1-421, T412E; 5 μM ATP; read-out: p70S6K IC50
pIC50: −log10 of the molar value.

CCOc1nc(N)nc(N[C@@H](CCC(=O)NN)C(=O)Nc2cccc(C(F)(F)F)c2)c1C#N
< 5.70
CCOc1nc(N)nc(N[C@@H](CCCNC(C)=O)C(=O)Nc2cccc(C(F)(F)F)c2)c1C#N
< 5.70
CNc1cc(COC(=O)Nc2cccc(C(F)(F)F)c2)nc(SC)n1
> 7.30
CSc1nc(N)nc(SC2CCN(c3cccc(C(F)(F)F)c3)C2=O)c1C#N (stereo not shown)
> 7.30
CSc1nc(N)nc(N[C@@H](C)C(=O)Nc2cc(C(=O)NCCN(C)C)cc(C(F)(F)F)c2)c1C#N
< 5.70
CSc1nc(N)nc(N[C@@H](C)C(=O)Nc2cccc(C(F)(F)F)c2)c1C#N
5.70 to 6.30

Attention now turns to another entry.
# get_value(readout='pIC50', item= "CSc1nc(N)nc(N(C)[C@@H](C)C(=O)Nc2cc(OC(F)(F)F)ccc2OCCN(C)C)c1C#N" )
> 7.30
